Molecular target: SHP2 (Homo sapiens, UniProt Q06124)
Construct: 6xHis (N, cleaved yes); TEV cleavage site (N, cleaved yes); made in house; host or cells: E. coli BL21 (DE3)
Sequence (Q06124 1-525): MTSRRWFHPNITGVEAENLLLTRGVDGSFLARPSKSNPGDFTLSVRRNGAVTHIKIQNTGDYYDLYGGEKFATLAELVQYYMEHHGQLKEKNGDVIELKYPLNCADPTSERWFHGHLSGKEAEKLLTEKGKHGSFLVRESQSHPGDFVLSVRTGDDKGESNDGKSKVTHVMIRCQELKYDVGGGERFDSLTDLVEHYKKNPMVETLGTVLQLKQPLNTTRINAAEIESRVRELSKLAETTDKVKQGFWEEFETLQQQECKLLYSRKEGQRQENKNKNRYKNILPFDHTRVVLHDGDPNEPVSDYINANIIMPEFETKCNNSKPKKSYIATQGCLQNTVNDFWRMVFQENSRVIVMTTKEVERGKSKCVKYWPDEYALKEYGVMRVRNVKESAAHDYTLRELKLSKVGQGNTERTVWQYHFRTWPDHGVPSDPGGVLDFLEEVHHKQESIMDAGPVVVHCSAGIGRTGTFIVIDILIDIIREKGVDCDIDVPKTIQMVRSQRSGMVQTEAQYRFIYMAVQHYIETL
Assay: SHP2 phosphatase activity inhibition, DiFMUP prompt fluorescence assay
Assay type: biochemical
Details: 0.5 nM SHP2 activated with 0.125 µM bis-tyrosyl-phosphorylated peptide; substrate DiFMUP 200 μM; room temperature; read-out: Inhibitory activity IC50
The molecules listed here are annotated with their IC50.

molecule: C[C@H]1OCC2(CCN(c3nn4ccc(-c5cccc(Cl)c5Cl)c4c(=O)n3C)CC2)[C@H]1N [PB17-026-01]
IC50 / nM: 38.9
//
molecule: C[C@H]1OCC2(CCN(c3nn4ccc(-c5ccncc5)c4c(=O)n3C)CC2)[C@H]1N [PB17-035-01]
IC50 / nM: 168
//
molecule: C[C@H]1OCC2(CCN(c3nn4cnc(-c5cccc(Cl)c5Cl)c4c(=O)n3C)CC2)[C@H]1N [PB17-021-01]
IC50 / nM: 104
//
molecule: Cn1c(N2CCC(C)(CN)CC2)nn2ccc(-c3cccc(Cl)c3Cl)c2c1=O [PB17-036-01]
IC50 / nM: 645

The reported numbers originate from paper PMC9744210.
